condition.summary: human gut metagenome, 24 h, 2 µM; also: call rule not given here
readout: Bacterial Biotransformation

Reference set, count: 5
# compound, Bacterial Biotransformation
data = [
    ("C=CCc1ccccc1OCC(O)CNC(C)C (centres undefined)", "Compound NOT metabolized"),
    ("Cc1cn([C@H]2C[C@H](N=[N+]=[N-])[C@@H](CO)O2)c(=O)[nH]c1=O", "Compound NOT metabolized"),
    ("CC(=O)OCC(=O)[C@@]1(O)[C@@H](C)C[C@H]2[C@@H]3CCC4=CC(=O)C=C[C@]4(C)[C@@]3(F)[C@@H](O)C[C@@]21C [BETAMETHASONE ACETATE]", "Compound NOT metabolized"),
    ("Nc1nc2ccc(OC(F)(F)F)cc2s1", "Compound NOT metabolized"),
    ("CC(=O)CC(c1ccccc1)c1c(O)c2ccccc2oc1=O (centres undefined)", "Compound metabolized"),
]

Item: `OC(Cn1cncn1)(Cn1cncn1)c1ccc(F)cc1F` | Bacterial Biotransformation: Compound NOT metabolized

Item: `Cc1ccc(-c2nc3ccc(C)cn3c2CC(=O)N(C)C)cc1` | Bacterial Biotransformation: Compound NOT metabolized

Measured values drawn from ChEMBL document CHEMBL5724914 for this set.
